# PBM binding z-score per record follows
# System: VDR:RXRa (NR concentration 270 nM, RXRa partner concentration 90 nM)
# ASSAY TEXT: PBM binding z-score (relative to random genomic background probes); higher = stronger binding; sequences stand for … in GC…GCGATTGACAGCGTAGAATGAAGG
Form field (numeric): enter value without unit.

Field: example entries. Status: answers known.
CCTACTGGGCGAAAAAGGTCATTGATGCCGATAA; 4.21
AATACAGGGCCATCGTAGGCCAGAGTACGCACAG; -0.126
AACTCTAGGTAACAAGTTCAGTGAAAGAGAGGAC; 1.61
CCTTACGGGTCAAGGTTATAGAACGGGTGGTACG; 3.42
CCTAGTTGGACAGGAGGTCACACACCGGATATGA; 3.69

Then there is this sequence:
Form field: reported PBM binding z-score of CAAACTAGGTCAAGAAGTCAAAGTCCGCTTCCCG 1.93

---

# System: PXR homodimer (NR concentration 270 nM)
# ASSAY TEXT: PBM binding z-score (relative to random genomic background probes); higher = stronger binding; sequences stand for … in GC…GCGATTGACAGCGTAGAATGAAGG
Each record gets a class by PBM binding z-score: zone 1: < 0.03; zone 2: ≥ 0.03 and < 0.6; zone 3: ≥ 0.6

CCGAGTATGTTATGGGGCATTCAGGCAACGGTGA; zone 2
ATAATGAGGTTACCAAAGATCAGGGAAACGCTTG; zone 2
TCTTGTAGATCCACAGGAGGTTAAGAAAGATCGA; zone 1
AGAATGAGGGTATTAAGATCAGGGAATTGCGGTC; zone 2
CCTAGGAGGCCAATCTGGGTCACTCAAGGCTTGA; zone 1

// return the class label for ACCTCTAGGTAAAGTTCAGTGAAAGATCGATAGA zone 3

Entry CGTGAAAGTTCAAGGTAACGTAACAGAAAGCAGC please zone 3

---

# System: THRa homodimer (NR concentration 90 nM)
# ASSAY TEXT: PBM binding z-score (relative to random genomic background probes); higher = stronger binding; sequences stand for … in GC…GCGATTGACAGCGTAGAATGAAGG
MEASURED PROPERTY: PBM binding z-score
Form field (numeric): enter value without unit.

Field: example entries. Status: answers known.
ATCTCTAGGTAACCAAGTGCAGTGAATGCCGAAC; 0.223
GCGACTGGGGCAAAGCAGTTTACCATAAGGTTGG; -0.284
CCGAGTAGGATATGGGGCATTCAGGCAACGGTGA; 0.0622
TCATATAGGTAATACAGTTGAAAGTCGGCATCTA; 0.576
CGAACTAGGTCATCCAGGCCAGTGAATACATTGA; 1.19

Then there is this sequence:
Which PBM binding z-score is reported with THRa homodimer (NR concentration 90 nM) for this entry: AGAACCAGGGCAATGAGTTGATAGCACGGGTGGC ? -0.251

---

# System: PPARg:RXRa IVT, anti-PPARg (NR concentration 270 nM, RXRa partner concentration 90 nM)
# ASSAY TEXT: PBM binding z-score (relative to random genomic background probes); higher = stronger binding; sequences stand for … in GC…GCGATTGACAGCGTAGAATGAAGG
# PBM binding z-score per record follows
Form field (numeric): enter value without unit.

Field: example entries. Status: answers known.
GTATATAGGTAATACAAGGTGAAAGTCCGATTGT; 5.62
CTCGAAAGGTCGGTTGAGGTGAGCATACGGATAA; 1.01
CGTGAAAGTTCAACTAAGGTAACGTAAAGCACGC; 1.86
AGAATGAGATTATTAAGATCAGGGAATTGCGGTC; 0.00075
CCGACTGGGGCATAAGGTTATCATAAGCCAGCCC; 3.27
ACTTACGGGTCAACGAGGTTATAACACGCGTATA; 4.21
CTCGAAAGGTCGTGTTCAGGTGAGTATACCAAAC; 1.95
ATCTCTAGGTAAAGATATTTCAGTGAATGCAAAT; 1.88

Form field: reported PBM binding z-score of AGAATGAGGTTATACGTAGATCAGAGAAGAAAGT 2.41

Entry AGAACGAAGGCACGCTGAGTTGATAGCAGAGTAG please -0.214

Entry TCTATTAGTTGAAGGGGAACCGACGAGTCCGTTT please 0.249

Entry CCTTGCGGGTCACGAGGTTATAGCACGACGAGCG please 6.59

Entry TCTTGTAGATCAGCAGGAGGTTAAGAAAGATCGA please 0.727
